The reported measurements were obtained from the supplement of paper PMC10567573.

Attribute: protein stability index
B1: SOAT2 (parent)
chain: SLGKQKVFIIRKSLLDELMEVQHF

variants of: B1; experiment: protein stability index of a GFP-peptide fusion (GPS, HEK-293T) (PSI 1-6); higher = more stable; settings: c terminus: a fixed tail appended;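 also: lentivirally expressed fusions sorted by FACS into six bins by GFP to DsRed ratio, PSI derived from sequencing read proportions per bin multiplied by bin number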
Lab note: jot the number down without any unit.

variant spec	protein stability index
H23R	1.66
V7Q	1.82
R11C	2.61
S13R	2.86
S1A	2.41
D16N	3.3
F8M	1.58
G3D	2.12

Here's the next entry for you.
Request: Query: protein stability index; subject: K12E
Result: 2.99
